Listed molecules paired with reported PHD Inhibition (pIC50)
Biological target: PHD2 enzyme (residues 181-417) (Homo sapiens (Human), UniProt Q9GZT9)
Sequence (Q9GZT9 181-417): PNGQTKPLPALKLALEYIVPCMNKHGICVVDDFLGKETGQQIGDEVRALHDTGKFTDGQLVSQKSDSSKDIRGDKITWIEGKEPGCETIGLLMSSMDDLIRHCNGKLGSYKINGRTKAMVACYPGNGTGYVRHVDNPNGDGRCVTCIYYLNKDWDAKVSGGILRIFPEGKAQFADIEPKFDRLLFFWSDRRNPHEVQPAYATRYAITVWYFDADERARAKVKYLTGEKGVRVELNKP
Assay: Inhibition of PHD enzyme (LC/MS peptide hydroxylation assay)
Type: biochemical
Conditions: PHD2 (residues 181-417) 5 nM, 60 min pre-incubation; -log(IC50), IC50 molar
Lab note: record the figure alone, no unit after it.

Here's what some known entries look like.
molecule	PHD Inhibition (pIC50)
CCN(CC)C1CCCN(C(=O)c2ccc(-n3ncc(-c4ccc(C#N)cc4C)c3O)nc2)C1 (centres unmarked) [Example 380]	8.17
COCC(C)CNC(=O)c1ccc(-n2ncc(-c3ccc(C#N)cc3)c2O)nc1 (centres unmarked) [Example 146]	8.3
Cc1cc(C#N)ccc1-c1cnn(-c2ccc(C(=O)N(C)C3CCN(C)C3)cn2)c1O (centres unmarked) [Example 368]	7.89
COc1cc(-c2cnn(-c3ccc(C(=O)NCC4CCN(C)C4)cn3)c2O)ccn1 (centres unmarked) [Example 36]	7.4
N#Cc1ccc(-c2cnn(-c3ccc(C(=O)N4CCC[C@H]4CN4CCCC4)cn3)c2O)cc1 [Example 352]	7.47

Let us examine a further case.
Ask | Returns the measured PHD Inhibition (pIC50) for the input molecule. Input: CO[C@H](C)CCNC(=O)c1ccc(-n2ncc(-c3ccc(C#N)cc3C)c2O)nc1 [Example 371]
Reply | 8.20

---

Target: PHD2 enzyme (residues 181-417) (Homo sapiens (Human))
Experiment: Inhibition of PHD enzyme (LC/MS peptide hydroxylation assay)
Assay type: biochemical
Settings: PHD2 (residues 181-417) 5 nM, 60 min pre-incubation; -log(IC50), IC50 molar
value_type: PHD Inhibition (pIC50)
The reply should be a number, written without any unit.

Previously resolved entries follow.
compound	system	PHD Inhibition (pIC50)
CCN1CCN(C(=O)c2ccc(-n3ncc(-c4ccc(C#N)cc4C)c3O)nc2)[C@H](C)C1	PHD2 enzyme (residues 181-417) (Homo sapiens (Human))	8.20
Cc1cc(C#N)ccc1-c1cnn(-c2ccc(C(=O)NCC3CCN(C)C3)cn2)c1O (stereo not shown)	PHD2 enzyme (residues 181-417) (Homo sapiens (Human))	8
N#Cc1ccc(-c2cnn(-c3ccc(C(=O)NCCC4CCOCC4)cn3)c2O)cc1	PHD2 enzyme (residues 181-417) (Homo sapiens (Human))	7.31
Cc1cc(C#N)ccc1-c1cnn(-c2ccc(C(=O)N3CC4(COC4)C3)cn2)c1O	PHD2 enzyme (residues 181-417) (Homo sapiens (Human))	8
CCN1CCCC1CN(C)C(=O)c1ccc(-n2ncc(-c3ccc(C#N)cc3C)c2O)nc1 (stereo not shown)	PHD2 enzyme (residues 181-417) (Homo sapiens (Human))	7.94
Cc1cc(C#N)ccc1-c1cnn(-c2ccc(C(=O)N3CCCN(C)CC3)cn2)c1O	PHD2 enzyme (residues 181-417) (Homo sapiens (Human))	8.10
COc1nccc(-c2cnn(-c3ccc(C(=O)NCC4CCOCC4)cn3)c2O)c1OC	PHD2 enzyme (residues 181-417) (Homo sapiens (Human))	7.6
CCCN1CCC(NC(=O)c2ccc(-n3ncc(-c4ccnc(OC)c4)c3O)nc2)CC1	PHD2 enzyme (residues 181-417) (Homo sapiens (Human))	7.04
COc1cc(-c2cnn(-c3ccc(C(=O)N[C@H]4CC[C@@H](C)CC4)cn3)c2O)ccn1	PHD2 enzyme (residues 181-417) (Homo sapiens (Human))	8.3
CCN1CCC(N(C)C(=O)c2ccc(-n3ncc(-c4ccc(C#N)cc4C)c3O)nc2)CC1	PHD2 enzyme (residues 181-417) (Homo sapiens (Human))	7.74

Ask | Name the recorded PHD Inhibition (pIC50) for Cc1cc(C#N)ccc1-c1cnn(-c2ccc(C(=O)N[C@H]3CC[C@H](O)CC3)cn2)c1O [Example 132] .
Reply | 7.26

Ask | Request the reported PHD Inhibition (pIC50) associated with "COc1cc(-c2cnn(-c3ccc(C(=O)N[C@H]4CC[C@@H](OC)CC4)cn3)c2O)ccn1"
Reply | 7.5

Ask | Item under review: COc1cc(-c2cnn(-c3ccc(C(=O)NCC4CN(C)CCO4)cn3)c2O)ccn1 (stereo not shown) . Reported PHD Inhibition (pIC50)?
Reply | 7.8

Ask | PHD Inhibition (pIC50) lookup needed for "Cc1cc(C#N)ccc1-c1cnn(-c2ccc(C(=O)N[C@H]3CC[C@@H](O)CC3)cn2)c1O" , thanks.
Reply | 7.21

Ask | Need PHD Inhibition (pIC50) of "CCN1CCN(C(=O)c2ccc(-n3ncc(-c4ccc(C#N)c(F)c4C)c3O)nc2)C[C@H]1C" , thanks.
Reply | 8.40

Ask | Please look up its PHD Inhibition (pIC50): "Cc1c(-c2cnn(-c3ccc(C(=O)N4CCC[C@H](N(C)C)C4)cn3)c2O)ccc(C#N)c1F"
Reply | 8.17

---

Molecular target: PHD2 enzyme (residues 181-417) (Homo sapiens (Human), UniProt Q9GZT9)
Assay: Inhibition of PHD enzyme (LC/MS peptide hydroxylation assay)
Format: biochemical
Conditions: PHD2 (residues 181-417) 5 nM, 60 min pre-incubation; -log(IC50), IC50 molar
Tick t if PHD Inhibition (pIC50) is 8 or greater. Tick f if PHD Inhibition (pIC50) is less than 8.

compound	group
N#Cc1ccc(-c2cnn(-c3ccc(C(=O)N[C@@H]4CCOC4)cn3)c2O)cc1	f
CC(C)OCCCNC(=O)c1ccc(-n2ncc(-c3ccc(C#N)cc3)c2O)nc1	f
CCN1CCCC1CN(C)C(=O)c1ccc(-n2ncc(-c3ccc(C#N)cc3)c2O)nc1 (centres unmarked)	f
Cc1c(-c2cnn(-c3ccc(C(=O)N4CCC[C@@H](N(C)C5CC5)C4)cn3)c2O)ccc(C#N)c1F	t
COc1cc(-c2cnn(-c3ccc(C(=O)NC(C)C)cn3)c2O)ccn1	f

Ask | Could you please find out whether "COC[C@@H](NC(=O)c1ccc(-n2ncc(-c3ccc(C#N)cc3C)c2O)nc1)C(C)C" has PHD Inhibition (pIC50) that meets 8 or exceeds it?
Reply | f

Ask | Does CC1CC1NC(=O)c1ccc(-n2ncc(-c3ccc(C#N)cc3)c2O)nc1 (centres unmarked) have a reported PHD Inhibition (pIC50) of at least 8?
Reply | f

Ask | Decide: is the reported value of PHD Inhibition (pIC50) for "Cc1cc(C#N)ccc1-c1cnn(-c2ccc(C(=O)N3CCN(C)C4(CC4)C3)cn2)c1O" equal to or greater than 8?
Reply | t

Ask | PHD Inhibition (pIC50) >= 8 for "CC(C)CNC(=O)c1ccc(-n2ncc(-c3ccc(C#N)cc3)c2O)nc1" ?
Reply | f

Ask | Is PHD Inhibition (pIC50) for "Cc1cc(C#N)c(F)cc1-c1cnn(-c2ccc(C(=O)N3CCN(C)C4(CC4)C3)cn2)c1O" at or above 8?
Reply | t

Ask | Is PHD Inhibition (pIC50) for "COCCC(C)(C)NC(=O)c1ccc(-n2ncc(-c3ccc(C#N)cc3)c2O)nc1" at or above 8?
Reply | f

---

# PHD Inhibition (pIC50) values compiled below
Target: PHD2 enzyme (residues 181-417) (Homo sapiens (Human))
Test: Inhibition of PHD enzyme (LC/MS peptide hydroxylation assay)
Assay type: biochemical
Conditions: PHD2 (residues 181-417) 5 nM, 60 min pre-incubation; -log(IC50), IC50 molar

compound	PHD Inhibition (pIC50)
COCCCNC(=O)c1ccc(-n2ncc(-c3ccc(C#N)cc3C3CC3)c2O)nc1	7.99
N#Cc1ccc(-c2cnn(-c3ccc(C(=O)NCCCOCC4CC4)cn3)c2O)cc1	7.36
Cc1cc(C#N)ccc1-c1cnn(-c2ccc(C(=O)NCC3CCC3)cn2)c1O	8.2

Let us move to another entry and its PHD Inhibition (pIC50).
Ask | Provide the documented PHD Inhibition (pIC50) with PHD2 enzyme (residues 181-417) (Homo sapiens (Human)) as the system for CN1CCC(CNC(=O)c2ccc(-n3ncc(-c4ccc(C#N)cc4)c3O)nc2)CC1 [Example 271]
Reply | 6.98

---

Target: PHD2 enzyme (residues 181-417) (Homo sapiens (Human))
Test: Inhibition of PHD enzyme (LC/MS peptide hydroxylation assay)
Assay type: biochemical
Details: PHD2 (residues 181-417) 5 nM, 60 min pre-incubation; -log(IC50), IC50 molar
Method: Example A Inhibition of PHD Enzyme The IC50 values for the PHD2 enzyme (residues 181-417) were determined by mixing increasing amounts of inhibitor with a fixed amount of enzyme (5 nM, final concentration) and Biotin labeled peptide (Biotin-Asp-Leu-Glu-Met-Leu-Ala-Pro-Tyr-Ile-Pro-Met-Asp-Asp-Asp-Phe-Gln-Leu, 1 uM final concentration) and 2-Oxyglutarate (2 uM final concentration) in 50 mM HEPES, 50 mM KCl, 0.5 mM TCEP, 2 uM FeCl2, 0.1 mg/ml BSA, at pH 7.3. […]
Threshold check on PHD Inhibition (pIC50): strictly below 8 is True; on or above 8 is False.

// known answers, use as guide
compound	group
COc1cc(-c2cnn(-c3ccc(C(=O)NC(C)(C)CN(C)C)cn3)c2O)ccn1 [Example 51]	True
Cc1c(-c2cnn(-c3ccc(C(=O)N4CCC[C@H](N(C)CC(F)F)C4)cn3)c2O)ccc(C#N)c1F [Example 333]	False
CCCNC(=O)c1ccc(-n2ncc(-c3ccnc(OC)c3)c2O)nc1 [Example 8]	True

Ask | Is PHD Inhibition (pIC50) of Cc1cc(C#N)ccc1-c1cnn(-c2ccc(C(=O)N3CCC[C@@H](N(C)C4CC4)C3)cn2)c1O [Example 383] strictly below 8?
Reply | False

Ask | Is it true that PHD Inhibition (pIC50) reported for C[C@H]1C[C@@H]1NC(=O)c1ccc(-n2ncc(-c3ccc(C#N)cc3)c2O)nc1 [Example 169] is less than 8?
Reply | True

Ask | Say whether its PHD Inhibition (pIC50) is strictly beneath 8. Entry: CO[C@H]1CC[C@H](NC(=O)c2ccc(-n3ncc(-c4ccc(C#N)cc4)c3O)nc2)CC1 [Example 229]
Reply | True

Ask | Dear reviewer, please state whether COCC1CCN(C(=O)c2ccc(-n3ncc(-c4ccc(C#N)cc4C)c3O)nc2)CC1 [Example 248] has PHD Inhibition (pIC50) strictly beneath 8.
Reply | False

Ask | Could you please tell me whether PHD Inhibition (pIC50) recorded for CC(C)OCCNC(=O)c1ccc(-n2ncc(-c3ccc(C#N)cc3)c2O)nc1 [Example 89] is less than 8?
Reply | True

Ask | Check if PHD Inhibition (pIC50) falls below 8 for N#Cc1ccc(-c2cnn(-c3ccc(C(=O)NCC4CC(F)(F)C4)cn3)c2O)cc1 [Example 264] .
Reply | True

All figures here come from patent US10407409B2.
